Taken from patent US12011444B2.

# IC50 listing for each entry below
Biological target: PTRGER4 (EP4) (Homo sapiens (Human), UniProt P35408)
Sequence (P35408 whole entry, looked up): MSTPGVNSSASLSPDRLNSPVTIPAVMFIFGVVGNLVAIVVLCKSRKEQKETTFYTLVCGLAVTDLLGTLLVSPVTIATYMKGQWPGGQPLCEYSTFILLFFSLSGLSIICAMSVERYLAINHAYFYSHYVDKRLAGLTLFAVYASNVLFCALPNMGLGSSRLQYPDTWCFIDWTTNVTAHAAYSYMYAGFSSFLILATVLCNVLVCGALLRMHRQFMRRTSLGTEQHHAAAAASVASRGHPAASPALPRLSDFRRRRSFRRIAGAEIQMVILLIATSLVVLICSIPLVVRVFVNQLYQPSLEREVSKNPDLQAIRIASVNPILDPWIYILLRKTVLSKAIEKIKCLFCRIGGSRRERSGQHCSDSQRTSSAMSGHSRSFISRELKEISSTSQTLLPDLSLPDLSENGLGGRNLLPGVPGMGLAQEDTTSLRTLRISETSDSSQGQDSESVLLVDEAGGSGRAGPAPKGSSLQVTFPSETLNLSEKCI
Assay: hEP4 b-arrestin assay (PathHunter HEK 293 PTGER4 b-arrestin cells)
Assay type: cell-based
Conditions: antagonistic activity on hEP4; mean where measured multiple times
assay_metric: IC50 (nM)

>  <compound>
CCc1cc(-c2cc(NCCn3c(C)cc4c(OC)ccc(F)c43)ncn2)ccc1C(=O)O [compound 290]

>  <readout_number>
102

$$$$
>  <compound>
COc1cc(F)cc2c1cc(C)n2CCNc1cc(-c2ccc3c(c2)CCN3)ncn1 [compound 62]

>  <readout_number>
32

$$$$
>  <compound>
CCOc1cc(-c2cc(NCCn3c(C#N)cc4c(C)cc(F)cc43)ncn2)ccc1C(=O)O [compound 395]

>  <readout_number>
137

$$$$
>  <compound>
Cc1cc(F)cc2c1cc(C)n2CCNc1cc(-c2ccc3cc[nH]c3c2)ncn1 [compound 10]

>  <readout_number>
691

$$$$
>  <compound>
Cc1cc(F)cc2c1cc(C)n2CCNc1cc(-c2ccc(-c3noc(=O)[nH]3)cc2)ncn1 [compound 182]

>  <readout_number>
141

$$$$
>  <compound>
CCNC(=O)Nc1ccc(-c2cc(NCCn3c(C)cc4c(C)ccc(F)c43)ncn2)cc1OC [compound 374]

>  <readout_number>
67

$$$$
>  <compound>
COc1cccc2c1cc(C)n2CCNc1cc(-c2ccc(NC(N)=O)cc2)ncn1 [compound 39]

>  <readout_number>
515

$$$$
>  <compound>
CCOc1cc(-c2cc(NCCn3c(C)cc4cc(C)cc(F)c43)ncn2)sc1C(=O)O [compound 228]

>  <readout_number>
35

$$$$
>  <compound>
CCC(C)c1cc(-c2cc(NCCn3c(C)cc4c(C)ccc(F)c43)ncn2)ccc1C(=O)O (racemic) [compound 337]

>  <readout_number>
308

$$$$
>  <compound>
COc1ccc(F)c2c1cc(C)n2CCNc1cc(-c2ccc(C(=O)NCCO)cc2)ncn1 [compound 361]

>  <readout_number>
678

$$$$
>  <compound>
CCOc1cc(-c2cc(NCCn3c(C)cc4c(C)ccc(F)c43)ncn2)ccc1CO [compound 124]

>  <readout_number>
151

$$$$
>  <compound>
Cc1cc(Cl)cc2c1cc(C)n2CCNc1cc(-c2ccc(C(=O)O)c(OC(F)F)c2)ncn1 [compound 349]

>  <readout_number>
301

$$$$
>  <compound>
CCc1cc(-c2cc(NCCn3c(C)cc4c(OC)cc(F)cc43)ncn2)ccc1C(=O)O [compound 283]

>  <readout_number>
132

$$$$
>  <compound>
Cc1cc(-c2ccc(-c3cc(NCCn4c(C)cc5c(C)cc(F)cc54)ncn3)cc2)n[nH]1 [compound 178]

>  <readout_number>
168

$$$$
>  <compound>
COc1cc(F)cc2c1cc(C)n2CCNc1cc(-c2ccc(C(=O)O)c(C3CC3)c2)ncn1 [compound 382]

>  <readout_number>
359

$$$$
>  <compound>
CCOc1cc(-c2cc(NCCn3c(C)cc4cc(F)c(F)c(F)c43)ncn2)sc1C(=O)O [compound 273]

>  <readout_number>
67

$$$$
